Reference for the values: ChEMBL document CHEMBL1139057

I'd be grateful if you could share measured inhibition at 1 µM for these entries.
- Test system: HT-1080
- PROCEDURE_TEXT: Antiproliferative activity against human HT1080 cells at 1 uM after 24 hrs by calcein-AM assay
- Format: functional
- DETAILS: HT-1080, 24 h
Give the quantity in %, number only.

Query :: For the compound C=C(C)[C@H]1Cc2c(ccc3c2O[C@@H]2COc4cc(OC)c(OC)cc4[C@]2(O)C3=O)O1 , what inhibition at 1 µM is on record?
Result :: 17.2

Query :: For the compound C=C(C)[C@H]1Cc2c(ccc3c2O[C@@H]2COc4cc(OC)c(OC)cc4[C@@H]2C3=O)O1 , what inhibition at 1 µM is on record?
Result :: 16.2

Query :: For the compound CC(=O)O[C@H]1C(=O)[C@@]2(C)[C@H]([C@H](OC(=O)c3ccccc3)[C@]3(O)C[C@H](OC(=O)[C@H](O)[C@@H](NC(=O)c4ccccc4)c4ccccc4)C(C)=C1C3(C)C)[C@]1(OC(C)=O)CO[C@@H]1C[C@@H]2O , what inhibition at 1 µM is on record?
Result :: -0.5

Query :: For the compound COc1cc2c(cc1OC)[C@]1(O)C(=O)c3ccc4c(c3O[C@@H]1CO2)C=CC(C)(C)O4 , what inhibition at 1 µM is on record?
Result :: 5

Query :: For the compound COc1cc2c(cc1OC)[C@@H]1C(=O)c3ccc4c(c3O[C@@H]1CO2)C=CC(C)(C)O4 , what inhibition at 1 µM is on record?
Result :: 10.5
